Experiment: qHTS Assay for Inhibitors of Hepatitis C Virus (HCV); note: potency is the fitted concentration of half-maximal effect
Details: Huh7.5.1 HCVcc-Cre infection, luciferase reporter, 44 h; series mostly up to 41.8 µM
In all, about 340,000 compounds went through this assay and about 12,000 (3.5%) were called active. Another 18% or so got no clear call; they are omitted. The list comes from a sample in which actives are over-represented; it also holds close analogues and randomly drawn compounds.
endpoint_name: Potency

Illustrative cases are given below, each with its answer.
>>> recorded_measurement("CCC(=O)NCc1cc(-c2nn(C)c(=O)c3ccccc23)ccc1OC")
"inactive"
>>> recorded_measurement("CC1(C)C(=O)CCC2(C)C1=CCC1C2C(=O)CC2(C)C1CCC2(O)C(=O)CO (stereo not given)")
"inactive"
>>> recorded_measurement("CCC(C)(C)n1nnnc1C(c1cccs1)N1CCN(Cc2ccccc2)CC1 (stereo not given)")
"inactive"
>>> recorded_measurement("Cn1c(=O)n(CCc2ccccc2)c(=O)c2c1nc1n2CCCN1c1ccccc1")
"inactive"

// Potency lookup, compound = O=C1CC[C@@H]2CC3(C[C@@H]4CCN1[C@H]24)Nc1cc([N+](=O)[O-])ccc1NC3=NC1CCCCC1 (stereo not given in full) , result: inactive

// Potency lookup, compound = CCOC(=O)N1CCN(CC(=O)c2c(C)[nH]c3ccccc23)CC1 , result: inactive

// Potency lookup, compound = N#CCCN(C(=O)COC(=O)c1ccc(S(=O)(=O)N2CCCCCC2)cc1)c1ccccc1 , result: inactive

// Potency lookup, compound = Cc1c(C(=O)OCC(=O)N(CCC#N)c2ccccc2)oc2c1ccc1ccccc12 , result: 8.91 µM (active)

// Potency lookup, compound = CN1CCN(C2Cc3ccc(Cl)cc3Sc3ccc(F)cc32)CC1 (stereo not given) , result: 31.6 µM (active)

// Potency lookup, compound = CC(Sc1nncn1C)C(=O)NCCC1=CCCCC1 (stereo not given) , result: inactive
